tested on: KM12 colon; assay: NCI tumour cell line growth inhibition, 48 h
Assay Metric: TGI

[Q] Item under review: "COC(=O)c1ccc(C(=O)OC)c2nc3cc(C)ccc3nc12" . Reported TGI?
[A] > 100 µM

[Q] Item under review: COC(=O)C(CC(=O)c1c[nH]c2ccccc12)c1c[nH]c2ccccc12 (stereo not given) . Reported TGI?
[A] > 10 µM

[Q] Item under review: "Cc1ccc(NC2=N/C(=C/c3ccco3)C(Cl)=N2)cc1" . Reported TGI?
[A] > 100 µM

[Q] Item under review: "CN(C)CCNC(=O)c1cc(NC(=O)c2cc(NC(=O)CC/C=C3/[C@@H]4CC[C@H]3N=N4)cn2C)cn1C" . Reported TGI?
[A] > 100 µM

[Q] Item under review: "COc1cc2c(cc1OC)C(=O)/C(=C/c1ccc(O)cc1)CC2" . Reported TGI?
[A] > 10 µM
